Biological target: T1, drDnaB (DnaB) (Deinococcus radiodurans R1 (ATCC13939), UniProt Q9RWW6 1-448)
T1 sequence: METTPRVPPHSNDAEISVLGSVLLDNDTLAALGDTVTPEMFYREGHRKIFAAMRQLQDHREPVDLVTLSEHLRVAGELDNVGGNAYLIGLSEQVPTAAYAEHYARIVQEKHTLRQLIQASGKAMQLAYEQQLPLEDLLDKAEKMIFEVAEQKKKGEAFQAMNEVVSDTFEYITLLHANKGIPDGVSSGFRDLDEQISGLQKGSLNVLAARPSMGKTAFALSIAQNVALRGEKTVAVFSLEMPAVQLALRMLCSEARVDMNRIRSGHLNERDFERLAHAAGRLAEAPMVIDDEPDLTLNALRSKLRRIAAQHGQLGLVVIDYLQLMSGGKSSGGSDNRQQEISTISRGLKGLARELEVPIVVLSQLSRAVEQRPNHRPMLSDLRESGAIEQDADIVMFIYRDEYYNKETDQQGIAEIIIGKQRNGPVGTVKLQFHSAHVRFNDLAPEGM
Assay: EMSA; no ATP; EMSA: 50 mM Tris-HCl pH 8.0, 75 mM KCl, 5 mM MgSO4, 0.1 mM DTT, +/- 1 mM ATP, ~30 nM 32P-DNA, 37 C 15 min
Details: protein: recombinant; tags: N-terminal 6xHis (pET28a); chain copies: 6; label: 32P 5' end
reportedProperty: Kd (µM)
The reply should be a number in µM, with the unit left off.

Give a short answer stating reported Kd for GGAATTCCAATGAACCGCAAAACCGCAAAAACCGTACCGA (ssDNA) [ssDNA oligo 99F (40 nt)] .
3.11
